- Protocol text: Brain and tissue distribution of Si306 in mice
- Format: in vivo, BALB/C mice
- Measurement parameters: male, BALB/C, mouse, brain, iv, 25 mg/kg, i.v., 25 mg/kg, read-out: time of maximum concentration into the brain (converted)
Reported metric: Tmax (min)
Answers are plain numbers, in min.

-- ask Given the compound ClC(Cn1ncc2c(Nc3cccc(Br)c3)nc(SCCN3CCOCC3)nc21)c1ccccc1 (stereo not shown) , what is its reported Tmax?
-- reply 5

----------
- Protocol text: Brain and tissue distribution of Si306 in mice
- Format: in vivo, BALB/C mice
- Measurement parameters: male, BALB/C, mouse, po, brain, 50 mg/kg
Reported metric: half-life

-- ask Given the molecule ClC(Cn1ncc2c(Nc3cccc(Br)c3)nc(SCCN3CCOCC3)nc21)c1ccccc1 (stereo not shown) , what is its reported half-life?
-- reply 2.1 h

----------
- Protocol text: Plasma pharmacokinetics of Si306 in mice
- Type: in vivo, BALB/C mice
- Measurement parameters: male, BALB/C, mouse, po, 50 mg/kg, mice
Reported metric: half-life

-- ask Given the compound ClC(Cn1ncc2c(Nc3cccc(Br)c3)nc(SCCN3CCOCC3)nc21)c1ccccc1 (stereo not shown) [Si306] , what is its reported half-life?
-- reply 5.96 h

----------
- Protocol text: Brain and tissue distribution of Si306 in mice
- Type: in vivo, BALB/C mice
- Measurement parameters: male, BALB/C, mouse, iv, brain, 25 mg/kg
Reported metric: Cmax (ng/g)
Answers are plain numbers, in ng/g.

-- ask Given the compound ClC(Cn1ncc2c(Nc3cccc(Br)c3)nc(SCCN3CCOCC3)nc21)c1ccccc1 (stereo not shown) , what is its reported Cmax?
-- reply 2940

----------
- Protocol text: Plasma pharmacokinetics of Si306 in mice
- Type: in vivo, BALB/C mice
- Measurement parameters: male, BALB/C, mouse, iv, 25 mg/kg, mice, read-out: AUC 0→24 h
Reported metric: AUC(0-t) (ng·h/mL)
Numbers only, in ng·h/mL.

-- ask Given the molecule ClC(Cn1ncc2c(Nc3cccc(Br)c3)nc(SCCN3CCOCC3)nc21)c1ccccc1 (stereo not shown) , what is its reported AUC(0-t)?
-- reply 22300

----------
- Protocol text: Plasma pharmacokinetics of Si306 in mice
- Format: in vivo, BALB/C mice
- Measurement parameters: male, BALB/C, mouse, po, 50 mg/kg, p.o., 50 mg/kg, mice, read-out: Tmax
Reported metric: Tmax (h)
Numbers only, in h.

-- ask Given the compound ClC(Cn1ncc2c(Nc3cccc(Br)c3)nc(SCCN3CCOCC3)nc21)c1ccccc1 (stereo not shown) , what is its reported Tmax?
-- reply 1.5

----------
- Protocol text: Acute toxicity study in mice (single i.v. dose)
- Format: in vivo, BALB/c mice
- Measurement parameters: male, BALB/c, mouse, in vivo, iv, single dose, mice
Reported metric: LD50 at 4 days

-- ask Given the compound ClC(Cn1ncc2c(Nc3cccc(Br)c3)nc(SCCN3CCOCC3)nc21)c1ccccc1 (stereo not shown) [Si306] , what is its reported LD50 at 4 days?
-- reply > 100 mg/kg

----------
- Protocol text: Brain and tissue distribution of Si306 in mice
- Type: in vivo, BALB/C mice
- Measurement parameters: male, BALB/C, mouse, po, brain, 50 mg/kg
Reported metric: Cmax (ng/g)
Answers are plain numbers, in ng/g.

-- ask Given the molecule ClC(Cn1ncc2c(Nc3cccc(Br)c3)nc(SCCN3CCOCC3)nc21)c1ccccc1 (stereo not shown) , what is its reported Cmax?
-- reply 10600

----------
- Protocol text: Plasma pharmacokinetics of Si306 in mice
- Format: in vivo, BALB/C mice
- Measurement parameters: male, BALB/C, mouse, po, 50 mg/kg, mice, read-out: MRT 0→∞
Reported metric: MRT inf (h)
One number for each entry, in h.

-- ask Given the molecule ClC(Cn1ncc2c(Nc3cccc(Br)c3)nc(SCCN3CCOCC3)nc21)c1ccccc1 (stereo not shown) [Si306] , what is its reported MRT inf?
-- reply 5.7

----------
- Protocol text: Brain and tissue distribution of Si306 in mice
- Format: in vivo, BALB/C mice
- Measurement parameters: male, BALB/C, mouse, brain, iv, 25 mg/kg, brain, i.v., 25 mg/kg, read-out: Tmax
Reported metric: Tmax (min)
One number for each entry, in min.

-- ask Given the compound ClC(Cn1ncc2c(Nc3cccc(Br)c3)nc(SCCN3CCOCC3)nc21)c1ccccc1 (stereo not shown) , what is its reported Tmax?
-- reply 4.8

----------
- Test target: CYP3A4 (Homo sapiens, UniProt P08684)
- Construct: Incubations were carried out in a mix containing human liver microsomes (1 mg/mL of protein); from tissue; host or cells: human liver microsomes
- Sequence (P08684 whole entry): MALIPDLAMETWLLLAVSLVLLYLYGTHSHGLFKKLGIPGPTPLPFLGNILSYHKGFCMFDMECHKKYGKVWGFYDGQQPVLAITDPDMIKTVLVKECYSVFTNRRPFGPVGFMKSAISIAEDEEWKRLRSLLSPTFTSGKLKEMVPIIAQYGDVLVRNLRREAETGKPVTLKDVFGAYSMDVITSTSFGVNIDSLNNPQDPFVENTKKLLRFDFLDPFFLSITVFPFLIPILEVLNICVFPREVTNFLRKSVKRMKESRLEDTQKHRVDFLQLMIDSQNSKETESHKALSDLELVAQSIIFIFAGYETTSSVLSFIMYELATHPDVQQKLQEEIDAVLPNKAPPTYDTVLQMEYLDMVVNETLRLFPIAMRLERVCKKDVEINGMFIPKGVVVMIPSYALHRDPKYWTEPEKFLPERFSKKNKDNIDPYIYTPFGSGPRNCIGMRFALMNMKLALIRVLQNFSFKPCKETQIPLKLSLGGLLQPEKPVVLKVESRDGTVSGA
- Protocol text: CYP3A4 inhibition in human liver microsomes (testosterone 6β-hydroxylation)
- Format: in vitro ADME
- Measurement parameters: pH 7.4, probe testosterone 100 μM (6β-hydroxylation), highest concentration used (1–50 μM range), not significative, read-out: maximum inhibition of CYP3A4 (testosterone 6β-hydroxylation)
Reported metric: inhibition at 40 min, 50 μM (%)
One number for each entry, in %.

-- ask Given the compound ClC(Cn1ncc2c(Nc3cccc(Br)c3)nc(SCCN3CCOCC3)nc21)c1ccccc1 (stereo not shown) , what is its reported inhibition at 40 min, 50 μM?
-- reply 20

----------
- Protocol text: Plasma pharmacokinetics of Si306 in mice
- Assay type: in vivo, BALB/C mice
- Measurement parameters: male, BALB/C, mouse, iv, 25 mg/kg, i.v., 25 mg/kg, mice, read-out: time of peak plasma concentration (converted)
Reported metric: Tmax (min)
Numbers only, in min.

-- ask Given the compound ClC(Cn1ncc2c(Nc3cccc(Br)c3)nc(SCCN3CCOCC3)nc21)c1ccccc1 (stereo not shown) , what is its reported Tmax?
-- reply 5

----------
- System: U87
- Protocol text: MTT cell growth inhibition, U87
- Format: cell-based, Human
- Measurement parameters: 72 h, n = 3
Reported metric: IC50 (µM)
Answers are plain numbers, in µM.

Batch request: IC50 for each of the following compounds.
1. CN1CCN(CCOC(=O)N(c2cccc(Br)c2)c2nc(SCCN3CCOCC3)nc3c2cnn3CC(Cl)c2ccccc2)CC1 (stereo not drawn)
2. Cc1nc(Nc2ncc(C(=O)Nc3c(C)cccc3Cl)s2)cc(N2CCN(CCO)CC2)n1 [Dasatinib, dasatinib, reference compound]
3. ClC(Cn1ncc2c(Nc3cccc(Br)c3)nc(SCCN3CCOCC3)nc21)c1ccccc1 (stereo not drawn)

-- reply
1. 3.04
2. 6.14
3. 3.08

----------
- Test target: P-gp (Homo sapiens, UniProt P08183)
- Sequence (P08183 whole entry): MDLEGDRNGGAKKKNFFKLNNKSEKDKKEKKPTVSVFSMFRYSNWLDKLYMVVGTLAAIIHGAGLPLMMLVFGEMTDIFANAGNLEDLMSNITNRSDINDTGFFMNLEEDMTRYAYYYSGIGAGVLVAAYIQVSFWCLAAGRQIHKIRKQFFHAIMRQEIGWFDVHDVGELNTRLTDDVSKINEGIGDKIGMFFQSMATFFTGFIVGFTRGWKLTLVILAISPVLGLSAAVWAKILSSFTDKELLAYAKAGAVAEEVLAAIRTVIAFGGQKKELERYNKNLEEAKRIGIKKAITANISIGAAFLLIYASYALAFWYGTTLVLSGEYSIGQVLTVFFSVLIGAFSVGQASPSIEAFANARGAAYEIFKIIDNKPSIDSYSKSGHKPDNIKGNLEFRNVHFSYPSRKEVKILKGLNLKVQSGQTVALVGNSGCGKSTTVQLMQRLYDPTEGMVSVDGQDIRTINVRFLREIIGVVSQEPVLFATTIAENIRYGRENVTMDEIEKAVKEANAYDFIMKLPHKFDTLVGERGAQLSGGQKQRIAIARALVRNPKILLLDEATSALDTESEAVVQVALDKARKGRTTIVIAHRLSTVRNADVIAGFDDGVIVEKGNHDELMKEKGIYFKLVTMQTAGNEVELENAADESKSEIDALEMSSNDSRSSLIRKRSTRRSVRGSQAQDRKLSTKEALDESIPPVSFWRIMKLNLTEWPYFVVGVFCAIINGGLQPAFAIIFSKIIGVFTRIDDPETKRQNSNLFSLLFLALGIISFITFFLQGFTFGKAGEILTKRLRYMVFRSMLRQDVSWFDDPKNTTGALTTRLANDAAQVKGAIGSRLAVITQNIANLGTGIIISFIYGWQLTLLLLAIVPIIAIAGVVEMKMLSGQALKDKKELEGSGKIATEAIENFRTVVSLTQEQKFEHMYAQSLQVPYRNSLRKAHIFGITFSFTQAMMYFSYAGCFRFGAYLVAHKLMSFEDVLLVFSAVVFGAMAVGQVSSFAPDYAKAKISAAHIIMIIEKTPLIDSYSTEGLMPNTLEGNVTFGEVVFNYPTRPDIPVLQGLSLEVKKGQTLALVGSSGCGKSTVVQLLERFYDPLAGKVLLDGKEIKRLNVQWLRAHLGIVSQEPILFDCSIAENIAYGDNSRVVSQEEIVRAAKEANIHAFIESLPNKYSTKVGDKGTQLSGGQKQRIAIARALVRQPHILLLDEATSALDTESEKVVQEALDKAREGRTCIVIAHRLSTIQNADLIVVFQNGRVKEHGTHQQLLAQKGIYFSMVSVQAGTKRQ
- Protocol text: Rho 123 accumulation assay (P-gp inhibition) in U87-TxR cells
- Measurement parameters: IC50 of P-gp inhibition, Rho 123 accumulation, 30 min, TQ values in nM (footnote a)
Reported metric: IC50

-- ask Could you share what IC50 was measured for COc1cc2c(cc1OC)CN(CCc1ccc(NC(=O)c3cc(OC)c(OC)cc3NC(=O)c3cnc4ccccc4c3)cc1)CC2 [TQ, tariquidar, reference compound] , tested on P-gp (Homo sapiens, UniProt P08183)?
-- reply < 1 nM

----------
- Protocol text: Plasma pharmacokinetics of Si306 in mice
- Format: in vivo, BALB/C mice
- Measurement parameters: male, BALB/C, mouse, iv, 25 mg/kg, mice
Reported metric: AUC(0-inf) (µg·h/mL)
Give bare numbers, in µg·h/mL.

-- ask Given the molecule ClC(Cn1ncc2c(Nc3cccc(Br)c3)nc(SCCN3CCOCC3)nc21)c1ccccc1 (stereo not shown) , what is its reported AUC(0-inf)?
-- reply 22.8

----------
- Protocol text: Plasma pharmacokinetics of Si306 in mice
- Assay type: in vivo, BALB/C mice
- Measurement parameters: male, BALB/C, mouse, po, 50 mg/kg, mice
Reported metric: AUC(0-inf) (ng·h/mL)
One number for each entry, in ng·h/mL.

-- ask Given the compound ClC(Cn1ncc2c(Nc3cccc(Br)c3)nc(SCCN3CCOCC3)nc21)c1ccccc1 (stereo not shown) [Si306] , what is its reported AUC(0-inf)?
-- reply 15200
